assay: Oral bioavailability in mouse at 20 mg/kg administered as single dose; assay type: ADME, organism-based; details: in vivo
Readout kind: bioavailability (%)
Answers are plain numbers, in %.

**Query** Using the record for CNC(=O)c1cc(Oc2ccc3nc(Nc4cccc(C(C)C)c4)ncc3c2)ccn1 , report its bioavailability.
**Result** 35

====

target: Serine/threonine-protein kinase B-raf (Homo sapiens, UniProt P15056, V600E); test: Inhibition of N-terminus His6-tagged Braf V600E mutant expressed in insect Sf9 cells assessed as Mek phosphorylation after 2 hrs by ELISA
Sequence (P15056 2-766 V600E limits assumed): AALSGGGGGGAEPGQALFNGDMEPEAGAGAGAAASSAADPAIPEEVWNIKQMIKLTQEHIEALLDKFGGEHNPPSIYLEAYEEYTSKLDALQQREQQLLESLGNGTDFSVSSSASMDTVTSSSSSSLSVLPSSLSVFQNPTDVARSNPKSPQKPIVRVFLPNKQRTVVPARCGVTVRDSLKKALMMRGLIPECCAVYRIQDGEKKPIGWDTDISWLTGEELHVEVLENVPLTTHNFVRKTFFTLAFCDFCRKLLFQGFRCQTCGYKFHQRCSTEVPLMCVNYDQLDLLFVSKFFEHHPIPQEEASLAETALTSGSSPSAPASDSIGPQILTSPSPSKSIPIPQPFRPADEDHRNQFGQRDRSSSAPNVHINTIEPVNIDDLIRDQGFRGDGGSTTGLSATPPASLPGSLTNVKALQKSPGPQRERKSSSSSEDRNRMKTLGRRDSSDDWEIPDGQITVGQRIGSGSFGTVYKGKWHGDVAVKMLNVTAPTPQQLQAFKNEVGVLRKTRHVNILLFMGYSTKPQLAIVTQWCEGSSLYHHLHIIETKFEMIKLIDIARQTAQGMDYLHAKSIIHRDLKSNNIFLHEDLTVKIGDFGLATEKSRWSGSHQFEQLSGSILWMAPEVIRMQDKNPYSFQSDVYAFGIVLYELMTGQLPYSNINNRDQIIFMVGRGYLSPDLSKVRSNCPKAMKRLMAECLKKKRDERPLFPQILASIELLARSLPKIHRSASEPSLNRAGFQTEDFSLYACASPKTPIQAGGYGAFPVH
Readout kind: IC50 (nM)
Give bare numbers, in nM.

As a guide, the following entries are already answered.
- CNC(=O)c1cc(Oc2ccc3nc(Nc4ccc(Oc5ccccc5)cc4)ncc3c2)ccn1: 600
- CNC(=O)c1cc(Oc2ccc3nc(Nc4ccc(C(F)(F)F)cc4)ncc3c2)ccn1: 67
- CNC(=O)c1cc(Oc2ccc3nc(Nc4ccc(C(C)C)cc4)ncc3c2)ccn1: 1
- CNC(=O)c1cc(Oc2ccc3nc(Nc4cccc(C(F)(F)F)c4)ncc3c2)ccn1: 640
- CNC(=O)c1cc(Oc2ccc3nc(Nc4cccc(Br)c4)ncc3c2)ccn1: 180
- CNC(=O)c1cc(Oc2ccc3nc(Nc4cccc(C(C)(C)C)c4)ncc3c2)ccn1: 45
- CNC(=O)c1cc(Oc2ccc3nc(Nc4ccccc4Oc4ccccc4)ncc3c2)ccn1: 5300
- CNC(=O)c1cc(Oc2ccc3nc(Nc4ccc(OC(F)(F)F)cc4)ncc3c2)ccn1: 80
- O=C(NCCN1CCCCC1)c1cc(Oc2ccc3nc(Nc4ccc(Br)cc4)ncc3c2)ccn1: 1300
- CNC(=O)c1cc(Oc2ccc3nc(Nc4cccc(Cl)c4)ncc3c2)ccn1: 660

Field: IC50. Fill in for each record below.
1. CNC(=O)c1cc(Oc2ccc3nc(Nc4cccc(C(C)(C)C)c4)ccc3c2)ccn1
2. CNC(=O)c1cc(Oc2ccc3nc(Nc4ccccc4)ncc3c2)ccn1
3. O=C(NCCO)c1cc(Oc2ccc3nc(Nc4ccc(Br)cc4)ncc3c2)ccn1
4. CNC(=O)c1cc(Oc2ccc3nc(Nc4cccc(C(C)C)c4)ncc3c2)ccn1
5. CNC(=O)c1cc(Oc2ccc3nc(Nc4ccc(F)cc4)ncc3c2)ccn1
6. CNC(=O)c1cc(Oc2ccc3nc(Nc4cccc(C(C)(C)C)c4)cnc3c2)ccn1
7. CNC(=O)c1cc(Oc2ccc3nc(Nc4ccc(Br)cc4)ncc3c2)ccn1

**Result**
1: 26; 2: 2200; 3: 8600; 4: 150; 5: 600; 6: 25; 7: 310

====

biological target: Serine/threonine-protein kinase B-raf (Homo sapiens, UniProt P15056, V600E); assay: Inhibition of N-terminus His6-tagged Braf V600E mutant expressed in insect Sf9 cells assessed as Mek phosphorylation after 2 hrs by ELISA
Readout kind: IC50 (µM)
One number for each entry, in µM.

• CNC(=O)c1cc(Oc2ccc3nc(Nc4ccccc4Br)ncc3c2)ccn1 = 24

Take each entry in turn and give its IC50.
1. CNC(=O)c1cc(Oc2ccc3nc(Nc4ccc(OC)cc4)ncc3c2)ccn1
2. CCc1ccccc1Nc1ncc2cc(Oc3ccnc(C(=O)NC)c3)ccc2n1
3. CNC(=O)c1cc(Oc2ccc3nc(Nc4cccc(OC(F)(F)F)c4)ncc3c2)ccn1
4. CNC(=O)c1cc(Oc2ccc3nc(Nc4ccc(-c5cccnc5)cc4)ncc3c2)ccn1

**Result**
1. 0.39
2. 1.3
3. 0.07
4. 25

Entry source: ChEMBL document CHEMBL1949510
